Test system: P388 leukemia ip, CD2F1 mice, survival T/C
Assay: NCI In Vivo Anticancer Drug Screen. Data for tumor model P388 Leukemia (intraperitoneal) in CD2F1 (CDF1) mice
Details: endpoint: median survival time; dose: 50.0 mg/kg/injection; schedule: Q01DX005 (ip); vehicle: saline with Tween-80; higher = longer survival
Inconclusive results and toxic doses are left out. Square brackets hold non-standard residues; d marks the D form. Peptide text beside a SMILES is read from it. * marks the point of attachment. ξ: configuration not given here. Cbz = O=C(OCc1ccccc1)*; ξI = CCC(C)C(N)C(=O)O
MEASURED_ENDPOINT: T/C

Ask: # return T/C for `Cc1ccc(S(=O)(=O)N/N=C2\CC/C(=N\NS(=O)(=O)c3ccc(C)cc3)[C@@H]3CC=CC[C@H]23)cc1` , test system: P388 leukemia ip, CD2F1 mice, survival T/C
Result: 92 % of control

Ask: # return T/C for `CCCNNC(=O)c1ccncc1` , test system: P388 leukemia ip, CD2F1 mice, survival T/C
Result: 100 % of control

Ask: # return T/C for `O=C(NNc1ccccc1)N(Nc1ccccc1)C(=O)Nc1ccccc1` , test system: P388 leukemia ip, CD2F1 mice, survival T/C
Result: 99 % of control

Ask: # return T/C for O=C(O)c1cccc(C(=O)O)c1S(=O)Cc1ccccc1 (configuration not stated) , test system: P388 leukemia ip, CD2F1 mice, survival T/C
Result: 102 % of control

Ask: # return T/C for `Cc1ccc2c(c1)Nc1c(ccc3ccccc13)S2` , test system: P388 leukemia ip, CD2F1 mice, survival T/C
Result: 105 % of control

Ask: # return T/C for CC1CC(N=Cc2ccc3c(c2)OCO3)CC(C)(C)C1 (configuration not stated) , test system: P388 leukemia ip, CD2F1 mice, survival T/C
Result: 103 % of control

Ask: # return T/C for `FC(F)(F)COP(=S)(OCC(F)(F)F)OCC(F)(F)F` , test system: P388 leukemia ip, CD2F1 mice, survival T/C
Result: 107 % of control

Ask: # return T/C for `COc1ccc2ccc3nonc3c2c1` , test system: P388 leukemia ip, CD2F1 mice, survival T/C
Result: 92 % of control

Ask: # return T/C for COC(=O)C1=C(C(=O)OC)C2CCCOC2=C(C)C1 (configuration not stated) , test system: P388 leukemia ip, CD2F1 mice, survival T/C
Result: 96 % of control

Ask: # return T/C for NCC(=O)NCC(=O)NC(Cc1ccc(O)cc1)C(=O)O (configuration not stated) , test system: P388 leukemia ip, CD2F1 mice, survival T/C
Result: 101 % of control

Ask: # return T/C for `Cc1ccc(-n2c(=S)n(-c3ccccc3C)c3nc4ccccc4nc2/c3=N\Nc2ccc(Cl)cc2)cc1` , test system: P388 leukemia ip, CD2F1 mice, survival T/C
Result: 92 % of control

Ask: # return T/C for `Cc1noc(NS(=O)(=O)c2ccc(N=c3c4ccccc4n(-c4ccccc4)c4ccccc34)cc2)c1C` , test system: P388 leukemia ip, CD2F1 mice, survival T/C
Result: 97 % of control

Ask: # return T/C for `C[n+]1c(-c2ccc(/C=N/NC(=O)c3ccc(C(=O)N/N=C/c4ccc(-c5cn6ccccc6[n+]5C)cc4)c(O)c3O)cc2)cn2ccccc21` , test system: P388 leukemia ip, CD2F1 mice, survival T/C
Result: 107 % of control

Ask: # return T/C for `CSc1ncc(C#N)c2nc(-c3ccccc3)nn12` , test system: P388 leukemia ip, CD2F1 mice, survival T/C
Result: 97 % of control

Ask: # return T/C for CCC(C)C(NC(=O)CNC(=O)CNC(=O)OCc1ccccc1)C(=O)O (stereo not drawn) (Cbz-Gly-Gly-[ξI]-OH) , test system: P388 leukemia ip, CD2F1 mice, survival T/C
Result: 103 % of control

Ask: # return T/C for `CN(C)CCCN1C[C@H]2CC[C@@](C)(C1)C2(C)C` , test system: P388 leukemia ip, CD2F1 mice, survival T/C
Result: 105 % of control

Ask: # return T/C for COC(=O)/C=C\C1(CCC(=O)OC)N=C(c2ccccc2)OC1=O (configuration not stated) , test system: P388 leukemia ip, CD2F1 mice, survival T/C
Result: 101 % of control

Ask: # return T/C for CC1CCCC(C)N1C(=O)C(Cl)(Cl)Cl (configuration not stated) , test system: P388 leukemia ip, CD2F1 mice, survival T/C
Result: 100 % of control

Ask: # return T/C for `CC1=C(/C=C/C(C)=C/C=C/C(C)=C/CO)C(C)(C)CCC1` , test system: P388 leukemia ip, CD2F1 mice, survival T/C
Result: 98 % of control

Ask: # return T/C for O=C1C(Sc2ccccc2)C(c2ccccc2)C1Sc1ccccc1 (configuration not stated) , test system: P388 leukemia ip, CD2F1 mice, survival T/C
Result: 96 % of control

Ask: # return T/C for `O=C1CSc2nc3c(Cl)cc(Cl)cc3c(=O)n21` , test system: P388 leukemia ip, CD2F1 mice, survival T/C
Result: 108 % of control

Ask: # return T/C for `Nc1nnc2nc(C3(c4nc5nnc(N)n5[nH]c4=O)Cc4ccccc4C3=O)c(=O)[nH]n12` , test system: P388 leukemia ip, CD2F1 mice, survival T/C
Result: 91 % of control

----------
Test system: P388 leukemia ip, CD2F1 mice, survival T/C
Assay: NCI In Vivo Anticancer Drug Screen. Data for tumor model P388 Leukemia (intraperitoneal) in CD2F1 (CDF1) mice
Details: endpoint: median survival time; dose: 100.0 mg/kg/injection; schedule: Q01DX009 (ip); vehicle: Klucel (hydroxypropylcellulose) (HPC); higher = longer survival
Toxic doses and inconclusive results are not listed.
Provide the reported T/C of each item.

Ask: # return T/C for Cc1ccc(S(=O)(=O)C(Cl)(SCl)Sc2ccccc2)cc1 (configuration not stated) , test system: P388 leukemia ip, CD2F1 mice, survival T/C
Result: 93 % of control

Ask: # return T/C for Cc1ccc(C2C(C#N)C(=O)NC(=O)C2C#N)cc1 (configuration not stated) , test system: P388 leukemia ip, CD2F1 mice, survival T/C
Result: 108 % of control

Ask: # return T/C for C=C(C)CC1CN2CCc3cc(OC)c(OC)cc3C2CC1=O (configuration not stated) , test system: P388 leukemia ip, CD2F1 mice, survival T/C
Result: 104 % of control

Ask: # return T/C for `O=C1C(=C2C=CN(CCCN3CCCCC3)C=C2)C(=O)c2ccccc21` , test system: P388 leukemia ip, CD2F1 mice, survival T/C
Result: 102 % of control

Ask: # return T/C for `Cc1nc2ccc(Cl)cn2c1[N+](=O)[O-]` , test system: P388 leukemia ip, CD2F1 mice, survival T/C
Result: 95 % of control

Ask: # return T/C for `CC1(Cc2c[nH]c(=O)[nH]c2=O)C(=O)NC(=O)NC1=O` , test system: P388 leukemia ip, CD2F1 mice, survival T/C
Result: 100 % of control

Ask: # return T/C for `Nc1[nH]c(=O)[nH]c(=O)c1S(=O)(=O)O` , test system: P388 leukemia ip, CD2F1 mice, survival T/C
Result: 90 % of control

Ask: # return T/C for `CN(C)Cc1c(N=Nc2cccc3ccccc23)[nH]c2ccccc12` , test system: P388 leukemia ip, CD2F1 mice, survival T/C
Result: 101 % of control

Ask: # return T/C for COc1ccc(CC(C#N)c2ccc(Cl)cc2)cc1 (configuration not stated) , test system: P388 leukemia ip, CD2F1 mice, survival T/C
Result: 101 % of control

Ask: # return T/C for `c1cc(NNc2cccc(-c3nn[nH]n3)c2)cc(-c2nn[nH]n2)c1` , test system: P388 leukemia ip, CD2F1 mice, survival T/C
Result: 117 % of control

Ask: # return T/C for `CCCCCCCCCCCCNC(=S)C(=S)NCCCCCCCCCCCC` , test system: P388 leukemia ip, CD2F1 mice, survival T/C
Result: 94 % of control

Ask: # return T/C for `CSc1nnc2sc3cc(C)ccc3n12` , test system: P388 leukemia ip, CD2F1 mice, survival T/C
Result: 103 % of control

Ask: # return T/C for CCOC(=O)C1=C(C)NC(=O)NC1c1ccccc1 (configuration not stated) , test system: P388 leukemia ip, CD2F1 mice, survival T/C
Result: 107 % of control

Ask: # return T/C for `O=C(/C=C/c1cccc(Cl)c1)c1ccccc1` , test system: P388 leukemia ip, CD2F1 mice, survival T/C
Result: 104 % of control

Ask: # return T/C for `CN(C)c1nc(N)nc(Nc2ccc(Br)cc2)c1N=O` , test system: P388 leukemia ip, CD2F1 mice, survival T/C
Result: 113 % of control

Ask: # return T/C for CCCCCC(CC(=O)O)C(N)C(=O)O (configuration not stated) , test system: P388 leukemia ip, CD2F1 mice, survival T/C
Result: 103 % of control

Ask: # return T/C for `C1=NC(c2ccccn2)=NNC(c2ccccn2)=C1c1ccccc1` , test system: P388 leukemia ip, CD2F1 mice, survival T/C
Result: 96 % of control
